Data provenance: the supplement of paper PMC6755084

Each item that follows carries a reported fraction ligated.
B1: F1*; the commonest letter at each place (parent)
chain: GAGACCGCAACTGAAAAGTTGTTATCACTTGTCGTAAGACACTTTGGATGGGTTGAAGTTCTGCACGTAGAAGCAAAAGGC

Variants of: B1
experiment description: fraction ligated after 30 min (ligated reads / total reads); higher = more ligase activity
experimental parameters: with F1*sub RNA substrate (template-directed ligation), 42 °C
Just the number, please, no unit after it.

Exercise: # get_value(readout='fraction ligated', item= `GAGACCGCAACTGAAAAGTTGTTGTCACTTGTCGTAAGAGACTTTGGATGGGTTGAAGTTCTGCACGTAGAAGCAAAAGGC` )
Key: 0.802

Exercise: # get_value(readout='fraction ligated', item= `GAGACCGCAACTGAAAAGTTGTTATCACTTGTCGGAAGACACTTTGGAAGGGTTGAAGTTCTGCACGTAGAAGCAAAAGGC` )
Key: 0.748

Exercise: # get_value(readout='fraction ligated', item= `GAGACCGCAACTGAAAAGTTGTTATCACTTGTAGTAAGACACTTTGGAAGGGTTGAAGTTCTGCACGTAGAAGCAAAAGGC` )
Key: 0.725

New cases:
Exercise: # get_value(readout='fraction ligated', item= `GAGACCGCAACTGAAAAGTTGTTAACACTTGTCGTAGGACACTTTGGATGGGTTGAAGTTCTGCACGTAGAAGCAAAAGGC` )
Key: 0.772

Exercise: # get_value(readout='fraction ligated', item= `GAGACCGCAACTGAAAAGTTGTTACCACTTGTCGTAAGACACTTTGGATGGGTTGACGTTCTGCACGTAGAAGCAAAAGGC` )
Key: 0.563

Exercise: # get_value(readout='fraction ligated', item= `GAGACCGCAACTGAAAAGTTGTTATCACTAGTCCTAAGACACTTTGGATGGGTTGAAGTTCTGCACGTAGAAGCAAAAGGC` )
Key: 0.781

Exercise: # get_value(readout='fraction ligated', item= `GAGACCGCAACTGAAAAGTTGTTATCACTTGTCGTACGACAATTTGGATGGGTTGAAGTTCTGCACGTAGAAGCAAAAGGC` )
Key: 0.849

Exercise: # get_value(readout='fraction ligated', item= `GAGACCGCAACTGAAAAGTTGTTATCACTTGTCGTAAGACACGTTGGAAGGGTTGAAGTTCTGCACGTAGAAGCAAAAGGC` )
Key: 0.76

Exercise: # get_value(readout='fraction ligated', item= `GAGACCGCAACTGAAAAGTTGTTATCACTTGTCGTAAGACCCTTTGGATTGGTTGAAGTTCTGCACGTAGAAGCAAAAGGC` )
Key: 0.597

Exercise: # get_value(readout='fraction ligated', item= `GAGACCGCAACTGAAAAGTTGTTATCAATTCTCGTAAGACACTTTGGATGGGTTGAAGTTCTGCACGTAGAAGCAAAAGGC` )
Key: 0.831

Exercise: # get_value(readout='fraction ligated', item= `GAGACCGCAACTGAAAAGTTGTCATCACTTTTCGTAAGACACTTTGGATGGGTTGAAGTTCTGCACGTAGAAGCAAAAGGC` )
Key: 0.787

Exercise: # get_value(readout='fraction ligated', item= `GAGACCGCAACTGAAAAGTTGTTATCACTTGTCGCAAGACACTTTGGACGGGTTGAAGTTCTGCACGTAGAAGCAAAAGGC` )
Key: 0.731
